System: Tyrosine-protein kinase Mer (Homo sapiens)
Test: Binding affinity to wild-type partial length human MER (R557 to L884 residues) expressed in bacterial expression system assessed as fraction of unbound kinase to substrate at 1 uM after 1 hr by KinomeScan assay
Measurement Kind: Activity (%)

| Entry Smiles | Measurement Kind | Readout Value |
| --- | --- | --- |
| CC(C)c1nc2c(Oc3ccc(NC(=O)c4cccn(-c5ccc(F)cc5)c4=O)cc3F)ccnc2[nH]1 | Activity | 99.6 |
| Cc1cnc2[nH]cnc2c1Oc1ccc(NC(=O)c2cccn(-c3ccc(F)cc3)c2=O)cc1F | Activity | 78 |
| O=C(Nc1ccc(Oc2c(Br)cnc3[nH]cnc23)c(F)c1)c1cccn(-c2ccc(F)cc2)c1=O | Activity | 60 |
| O=C(Nc1ccc(Oc2ccnc3[nH]cnc23)c(F)c1)c1cccn(-c2ccc(F)cc2)c1=O | Activity | 99.3 |

###

System: Cyclin-dependent kinase 2 (Homo sapiens)
Test: Binding affinity to wild-type human full length CDK2 (M1 to L298 residues) expressed in bacterial expression system assessed as fraction of unbound kinase to substrate at 0.1 uM after 1 hr by KinomeScan assay
Measurement Kind: Activity (%)

| Entry Smiles | Units Symbol | Readout Value |
| --- | --- | --- |
| CC(C)c1nc2c(Oc3ccc(NC(=O)c4cccn(-c5ccc(F)cc5)c4=O)cc3F)ccnc2[nH]1 | % | 41 |
| O=C(Nc1ccc(Oc2ccnc3[nH]cnc23)c(F)c1)c1cccn(-c2ccc(F)cc2)c1=O | % | 0 |
| O=C(Nc1ccc(Oc2c(Br)cnc3[nH]cnc23)c(F)c1)c1cccn(-c2ccc(F)cc2)c1=O | % | 0 |
| Cc1cnc2[nH]cnc2c1Oc1ccc(NC(=O)c2cccn(-c3ccc(F)cc3)c2=O)cc1F | % | 0 |

###

System: Epidermal growth factor receptor (Homo sapiens)
Test: Binding affinity to partial length wild type human EGFR (R669 to V1011 residues) expressed in bacterial expression system assessed as fraction of unbound kinase to substrate at 0.1 uM after 1 hr by KinomeScan assay

| Entry Smiles | Activity |
| --- | --- |
| CC(C)c1nc2c(Oc3ccc(NC(=O)c4cccn(-c5ccc(F)cc5)c4=O)cc3F)ccnc2[nH]1 | 2% |
| O=C(Nc1ccc(Oc2c(Br)cnc3[nH]cnc23)c(F)c1)c1cccn(-c2ccc(F)cc2)c1=O | 0% |
| Cc1cnc2[nH]cnc2c1Oc1ccc(NC(=O)c2cccn(-c3ccc(F)cc3)c2=O)cc1F | 1% |
| O=C(Nc1ccc(Oc2ccnc3[nH]cnc23)c(F)c1)c1cccn(-c2ccc(F)cc2)c1=O | 0% |

###

A collection of compounds and their measured Activity
System: Aurora kinase A (Homo sapiens)
Test: Binding affinity to wild-type human partial length AURKA (E122 to K401 residues) expressed in mammalian expression system assessed as fraction of unbound kinase to substrate at 1 uM after 1 hr by KinomeScan assay

| Entry Smiles | System | Units Symbol | Activity |
| --- | --- | --- | --- |
| Cc1cnc2[nH]cnc2c1Oc1ccc(NC(=O)c2cccn(-c3ccc(F)cc3)c2=O)cc1F | Aurora kinase A (Homo sapiens) | % | 6 |
| CC(C)c1nc2c(Oc3ccc(NC(=O)c4cccn(-c5ccc(F)cc5)c4=O)cc3F)ccnc2[nH]1 | Aurora kinase A (Homo sapiens) | % | 2 |
| O=C(Nc1ccc(Oc2ccnc3[nH]cnc23)c(F)c1)c1cccn(-c2ccc(F)cc2)c1=O | Aurora kinase A (Homo sapiens) | % | 2 |
| O=C(Nc1ccc(Oc2c(Br)cnc3[nH]cnc23)c(F)c1)c1cccn(-c2ccc(F)cc2)c1=O | Aurora kinase A (Homo sapiens) | % | 9 |
